Values were extracted from PubChem BioAssay.

Assay: sensitizers of A549 cells to miR-34 induction, primary screen, imaging, A549 dox-inducible miR-34, nuclei and caspase counts (AID 1347080)
Settings: A549 miR-34 inducible, Hoechst nuclei count, 48 h; measured here: relative caspase fold change +Dox/-Dox
// reported fold change for each item listed
reported metric: fold change

- CC1(CN2CCC(n3c(=O)[nH]c4ccccc43)CC2)OCc2ccccc2-n2cccc21 (stereo unspecified): 1.14
- N[C@@H](Cc1c[nH]c2ccc(O)cc12)C(=O)O: 0.787
- CCCCCCCCCCCCCCCCNc1ccc(C(=O)O)cc1: 0.501
- NC(=O)n1c(O)c(C(=O)c2cccs2)c2cc(Cl)ccc21: 1.95
- CC[C@H](CO)NCCN[C@H](CC)CO: 0.977
- C#Cc1cccc(Nc2ncnc3cc(OCCOC)c(OCCOC)cc23)c1: 1.12
- C[C@@H]1C(=O)O[C@H]2C[C@@]34[C@H]5C[C@@H](C(C)(C)C)[C@]36[C@@H](OC(=O)[C@@H]6O)O[C@@]4(C(=O)O5)[C@]21O: 1.75
- CC(C)(C)NC[C@H](O)c1ccc(O)c(CO)c1: 1.01
- C[C@@H](O[C@H]1OCCN(Cc2n[nH]c(=O)[nH]2)[C@H]1c1ccc(F)cc1)c1cc(C(F)(F)F)cc(C(F)(F)F)c1: 1.18
- C[C@]12CC[C@H]3C(=CCc4cc(O)ccc43)[C@@H]1CCC2=O: 1.13
- CC(C)CCCC(C)N (stereo unspecified): 1.92
- Cn1c(=O)[nH]c2ncn(C)c2c1=O: 1.17
- FCOC(C(F)(F)F)C(F)(F)F: 1.07
- OCCN1CCN(CCCN2c3ccccc3C=Cc3ccccc32)CC1: 2.29
- Nc1ncn([C@H]2C[C@H](O)[C@@H](CO)O2)c(=O)n1: 1.99
- COc1ccc(Cc2cnc(N)nc2N)cc1OC: 0.896

* * *

Assay: inhibition of endothelial tube formation, primary screen, imaging, VEGF stimulated, CD31 staining, tube area, NPC library (AID 1117340)
Details: VEGF-stimulated ADSC/ECFC co-culture, at 10 µM, stronger effect = higher value
reported metric: tube area decrease (%)

* CC(C(=O)O)c1ccc2c(c1)Cc1cccnc1O2 (configuration not stated) | -14.8
* NC(=O)C1(N2CCCCC2)CCN(CCCN2c3ccccc3CCc3ccc(Cl)cc32)CC1 | 109
* CC(=O)NC(Cc1ccccc1)C(=O)O (configuration not stated) | -0.2
* C1CCN2C[C@@H]3C[C@@H](CN4CCCC[C@@H]34)[C@H]2C1 | -8.8
* FC(F)(F)c1ccccc1-n1ccnc1 | -7.9
* O=S(=O)(O)NC1CCCCC1 | -18.4
* CNC(=O)c1cc(Oc2ccc(NC(=O)Nc3ccc(Cl)c(C(F)(F)F)c3)cc2)ccn1 | 111
* CC1(C)Oc2ccc(C#N)cc2[C@@H](N2CCCC2=O)[C@@H]1O | -8.1
* C[C@H]1O[C@H](O[C@H]2[C@H](O)[C@@H](O)[C@@H](O[C@H]3[C@H](O)[C@@H](O)[C@H](O)O[C@@H]3CO)O[C@@H]2CO)[C@H](O)[C@@H](O)[C@@H]1N[C@H]1C=C(CO)[C@@H](O)[C@H](O)[C@H]1O | -8.2
* CNCc1ccccc1 | -5.5
* COc1cc2ncnc(Nc3ccc(F)c(Cl)c3)c2cc1OCCCN1CCOCC1 | 65.5
* O=C(O)c1ccc[n+]([O-])c1 | 11.3
* COC(=O)C1=C(C)NC(C)=C(C(=O)OC)C1c1ccccc1[N+](=O)[O-] | 1.2
* CC(C)(C)C(=O)OCOC(=O)[C@@H]1N2C(=O)[C@@H](NC(=O)[C@H](N)c3ccccc3)[C@H]2SC1(C)C | -15.2
* O=C(O)Cc1ccc(-c2ccccc2)cc1 | 6.9
* Nc1ccn(C[C@@H](CO)OCP(=O)(O)O)c(=O)n1 | -2.6
* CN1C(CCl)Nc2cc(Cl)c(S(N)(=O)=O)cc2S1(=O)=O (configuration not stated) | 3.9
